Target or test system: IDH1^R132H homodimer enzyme (Homo sapiens, UniProt O75874, R132H)
Sequence (O75874 whole entry R132H): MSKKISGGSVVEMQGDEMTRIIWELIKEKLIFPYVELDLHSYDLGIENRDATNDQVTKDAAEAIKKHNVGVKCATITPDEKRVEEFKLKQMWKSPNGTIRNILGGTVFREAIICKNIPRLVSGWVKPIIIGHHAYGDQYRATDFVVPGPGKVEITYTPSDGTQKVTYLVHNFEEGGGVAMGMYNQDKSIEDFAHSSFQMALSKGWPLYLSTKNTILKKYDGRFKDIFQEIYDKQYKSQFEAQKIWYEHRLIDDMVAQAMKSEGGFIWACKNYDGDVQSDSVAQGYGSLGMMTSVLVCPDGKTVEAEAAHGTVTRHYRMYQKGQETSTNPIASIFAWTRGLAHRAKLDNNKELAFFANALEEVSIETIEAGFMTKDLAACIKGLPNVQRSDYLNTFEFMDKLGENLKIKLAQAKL
Procedure text: NADPH depletion assay, IDH1 R132H
Endpoint label: log10(IC50) (log10 of the value in nM)
Scale: log10; quantity: IC50; unit before log: nM

Ask: Any idea what its log10(IC50) is? The compound is COc1ccc(Cn2c(=O)ccc3cnc(N[C@@H](C)c4ccc(Cl)cc4)nc32)cc1 [cpd 21]
Reply: 3.40

Ask: Any idea what its log10(IC50) is? The compound is CC(C)[C@H](C)n1c(=O)ccc2cnc(N[C@@H](C)c3ccc(-c4ccccc4C#N)cc3)nc21 [cpd 165]
Reply: 2.20

Ask: Any idea what its log10(IC50) is? The compound is C[C@@H]1CN(Cc2ccc([C@H](C)Nc3ncc4ccc(=O)n([C@@H](C)C5CC5)c4n3)cc2F)C[C@H](C)O1 [cpd 171]
Reply: 2.23

Ask: Any idea what its log10(IC50) is? The compound is COC(=O)c1ccc([C@H](C)Nc2ncc3ccc(=O)n(CC4(C)COC4)c3n2)cc1 [cpd 10]
Reply: 3.59

Ask: Any idea what its log10(IC50) is? The compound is C=CC(=O)N1CC=C(c2ccc([C@H](C)Nc3ncc4ccc(=O)n([C@@H](C)C(C)C)c4n3)cc2)CC1 [cpd 168]
Reply: 1.46

Ask: Any idea what its log10(IC50) is? The compound is CC(C)[C@H](C)n1c(=O)ccc2cnc(N[C@@H](C)c3ccc(OC4CCNCC4)cc3)nc21 [cpd 155]
Reply: 2.66

From here, focus on the item given below.
Ask: Any idea what its log10(IC50) is? The compound is C=CC(=O)N1CCN([C@@H](CC2CC2)c2ccc([C@H](C)Nc3ncc4ccc(=O)n(C(C)C)c4n3)cc2)CC1 [cpd 230]
Reply: 0.00

###

Tested on: U87MG_IDH1R132H
Procedure text: Cellular 2-HG production assay, U87-MG-IDH1 R132H
Format: cell-based
Recorded conditions: inhibition of 2HG production, 72 hr incubation, LC-MS/MS
The entries below come with measured IC50 values attached.
Express the result in nM but write the number alone.

// known answers, use as guide
Ask: Any idea what its IC50 is? The molecule is C[C@H](Nc1ncc2ccc(=O)n(CC(C)(C)C)c2n1)c1ccc(C(=O)NC2CCC(F)(F)CC2)c(F)c1
Reply: 501

Ask: Any idea what its IC50 is? The molecule is C=CC(=O)N1CCN(Cc2ccc([C@H](C)Nc3ncc4ccc(=O)n(CC(C)(C)C)c4n3)cc2)CC1
Reply: 8

Ask: Any idea what its IC50 is? The molecule is C=CC(=O)N1CCC(Oc2ccc([C@H](C)Nc3ncc4ccc(=O)n(CC(C)(C)C)c4n3)cc2)CC1
Reply: 289

Ask: Any idea what its IC50 is? The molecule is C[C@H](Nc1ncc2ccc(=O)n(CC(C)(C)C)c2n1)c1ccc(CN2CCC(F)(F)CC2)c(F)c1
Reply: 370

Ask: Any idea what its IC50 is? The molecule is C=CC(=O)N1CCN(C(CC)c2ccc([C@@H](C)Nc3ncc4ccc(=O)n(C(C)C)c4n3)cc2)CC1 (stereo in doubt)
Reply: 13

From here, focus on the item given below.
Ask: Any idea what its IC50 is? The molecule is C[C@H](Nc1ncc2ccc(=O)n(Cc3c(F)cccc3F)c2n1)c1ccc(C(=O)NC2CCC(F)(F)CC2)cc1
Reply: 1190
